system: MDA-MB-231 breast; assay: NCI tumour cell line growth inhibition, 48 h
Classify as follows. Reported TGI greater than or equal to 30 µM: criterion met. Reported TGI below: criterion not met.

Examples with answers:
compound=O=c1[nH]nc(NCc2ccccc2)c2nnn(Cc3ccccc3)c12 label_class="criterion met"
compound=Cc1ccc2oc(=O)cc(/C(=C3/C=CC=N3)c3ccc[nH]3)c2c1 label_class="criterion not met"
compound="COC(=O)C1=C(O)[C@H](C(=O)OC)C2(O)C(C(=O)OC)[C@H](c3ccc(OC(=O)C(C)c4ccccc4)cc3)C[C@@H]1[C@@H]2C(=O)OC (some centres not stated)" label_class="criterion met"
compound="OC1c2ccccc2CCC1CN1CCN(CCOC(c2ccc(F)cc2)c2ccc(F)cc2)CC1 (configuration not stated)" label_class="criterion met"
compound="BrC(Br)=C1C(=C(Br)Br)C(Br)C1Br (configuration not stated)" label_class="criterion not met"
compound=Cc1cccc(Br)[n+]1[O-] label_class="criterion met"
compound="COc1cc(C2CC(c3cccc(Nc4ccnc5cc(Cl)ccc45)c3)=NN2c2ccc(Cl)cc2)cc(OC)c1OC (configuration not stated)" label_class="criterion met"
compound=CCCCn1c(CSc2ccc(Cl)cc2)c(C(=O)OCC)c2cc(OC)c(Br)cc21 label_class="criterion met"
compound=O=C(CCl)NCCNc1nccc(Nc2ccc(S(=O)(=O)Nc3ccccn3)cc2)n1 label_class="criterion not met"
compound=CC1CCN(Cc2ccc(NC(=O)c3cc4ccc5cccnc5c4[nH]3)cc2)CC1 label_class="criterion not met"

Consider now this further compound.
Problem: hey, is TGI for this one >= 30 µM? "CC(=O)/C(=C/c1ccccc1)C(=O)CC(C)C"
Result: criterion met

* * *

tested on: SF-539 CNS; experiment: NCI tumour cell line growth inhibition, 48 h; in the data active = GI50 below about 0.43 µM; inactive = the rest
Select the correct class. Options are t (active), f (inactive) and nothing else.

Recorded results for 6 molecules are shown here.
molecule=COc1cc(OC)cc(-c2ccc(-c3ccc(C(=N)N)cn3)o2)c1 label_class=f
molecule="CN(CCCCCl)P(=O)(OCCS(=O)(=O)CC(NC(=O)CCC(N)C(=O)O)C(=O)NC(C(=O)O)c1ccccc1)OCC1OC(n2ccc(N)nc2=O)C(O)C1O (configuration not stated)" label_class=f
molecule=N.N.N.N.N.NC(=O)[O-].[Co+3].[I-] label_class=f
molecule=CCC[CH2][Sn]([CH2]CCC)([O]c1cccc2cccnc12)[O]c1cccc2cccnc12 label_class=t
molecule=CC(=O)O[C@H]([C@H](OC(C)=O)[C@H](C)OC(C)=O)[C@@H](/C=C/[C@@H]1CC=CC(=O)O1)OC(C)=O label_class=f
molecule=CSC(=NC#N)S/C=C/C(=O)c1ccccc1 label_class=f

Problem: What outcome does the record of this test show for "CC1CCN(Cc2ccc(NC(=O)c3cc4ccc5cccnc5c4[nH]3)cc2)CC1" ?
Result: f

Problem: Also, O=C(CC1(O)C(=O)N(Cc2ccccc2)c2ccc(Cl)cc21)c1ccc(C(=O)NCC2CCC3(CC2)OOC2(CCCCC2)OO3)cc1 (configuration not stated) please.
Result: t

Problem: Quick one: "COc1ccc2c3c(Nc4cccc(/C(C)=N\O)c4)[nH]c4ccccc4c-3c(N=O)c2c1"
Result: f

Problem: Now give it for "Oc1ccc(Nc2ccc3ccccc3c2)cc1" too.
Result: f

Problem: Item: "CCCCCCCCCCCCCCCC1=NCCN1"
Result: f

Problem: Try "O=C(Nc1ccc(Cc2ccccc2)cc1)Nc1nn(C(=O)Nc2ccc(Cc3ccccc3)cc2)c2ccccc12" next.
Result: f

Problem: How about C[C@@]1(C(=O)O)CCC[C@]2(C)C1CC[C@@]13C[C@@](O)(CC[C@]12O)[C@@]1(CO1)C3 (some centres not stated) ?
Result: f

Problem: Now the same for "COc1cc(C(=O)O[C@H](C(=O)NCCCNC(=O)[C@@H](OC(=O)c2cc(OC)cc3c(C)cccc23)[C@]2(C)CO2)[C@]2(C)CO2)c2cccc(C)c2c1"
Result: t

Problem: Now the molecule COc1cc(C2CC(c3cccc(Nc4ccnc5cc(Cl)ccc45)c3)=NN2c2ccc(Cl)cc2)cc(OC)c1OC (configuration not stated)
Result: f

Problem: Okay, and "N#Cc1c(NCc2ccccc2)nc(NCc2ccccc2)c(C#N)c1-c1ccc(O)cc1" ?
Result: f

Problem: Entry to check: "COc1ccc2c(c1)c(-c1nc(-c3c[nH]c4ncccc34)cs1)cn2CCCN1CCCCC1"
Result: f

Value source: PubChem BioAssay (NCI)
